These entries and their values trace back to the supplement of paper PMC8967900.

Tested on: HAL-01
Assay: selective drug sensitivity score (sDSS, relative to normal bone marrow) (sDSS (score)); higher = more potent and effective on the cell line relative to normal bone marrow cells;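 also: ALL cell lines in 384-well plates, five doses spanning 10,000-fold, each plate scaled between vehicle and 100 µmol/L benzalkonium chloride controls, sDSS an adapted area-under-curve metric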
Settings: 72 h
For each of the compounds below, state its selective drug sensitivity score.
Keep the answer to the number alone.

query: Record CC(C)C[C@H](NC(=O)[C@@H](COC(C)(C)C)NC(=O)[C@H](Cc1ccc(O)cc1)NC(=O)[C@H](CO)NC(=O)[C@H](Cc1c[nH]c2ccccc12)NC(=O)[C@H](Cc1cnc[nH]1)NC(=O)[C@@H]1CCC(=O)N1)C(=O)N[C@@H](CCCNC(=N)N)C(=O)N1CCC[C@H]1C(=O)NNC(N)=O [Goserelin] (top concentration 10000 nM) : what is its selective drug sensitivity score with HAL-01?
result: -0.06

query: Record C[C@@H]1CN(C(=O)c2ccc(NC(=O)c3cc(O[C@H](C)c4c(Cl)ccc(F)c4Cl)c(N)nn3)cc2)C[C@H](C)N1 [Ensartinib] (top concentration 1000 nM) : what is its selective drug sensitivity score with HAL-01?
result: -2.84

query: Record CN1CCN(C(=O)c2ccc3cc(CCNc4ncnc5ccc(C#N)cc45)ccc3c2)CC1 [Senexin_B] (top concentration 1000 nM) : what is its selective drug sensitivity score with HAL-01?
result: -0.6

query: Record Nc1cccc2c1C(=O)N(C1CCC(=O)NC1=O)C2=O (centres undefined) [Pomalidomide] (top concentration 10000 nM) : what is its selective drug sensitivity score with HAL-01?
result: -0.26

* * *

System: MHH-CALL-4
Experiment: selective drug sensitivity score (sDSS, relative to normal bone marrow) (sDSS (score)); higher = more potent and effective on the cell line relative to normal bone marrow cells
Details: 72 h
T means recorded selective drug sensitivity score is -1 or above; F means it is below -1.

query: Test whether the compound C[C@@]1(C(=O)Nc2ccc(F)nc2)CCCN1c1nc(Nc2cc(C3CC3)n[nH]2)c2cccn2n1 (top concentration 10000 nM) records selective drug sensitivity score of -1 or higher.
result: T

query: Test whether the compound C=CC(=O)Nc1cccc(Nc2nc(Nc3ccc(N4CCN(C(C)=O)CC4)cc3OC)ncc2C(F)(F)F)c1 [Rociletinib] (top concentration 10000 nM) records selective drug sensitivity score of -1 or higher.
result: T

query: Test whether the compound O=C(/C=C/c1cccc(S(=O)(=O)Nc2ccccc2)c1)NO [Belinostat] (top concentration 10000 nM) records selective drug sensitivity score of -1 or higher.
result: T

query: Test whether the compound C[C@H]1C=C2C(=O)O[C@H]3CC[C@@H](C1)[C@@]23O [Galiellalactone] (top concentration 25000 nM) records selective drug sensitivity score of -1 or higher.
result: F

query: Test whether the compound C#Cc1cccc(Nc2ncnc3cc(OCCOC)c(OCCOC)cc23)c1 [Erlotinib] (top concentration 10000 nM) records selective drug sensitivity score of -1 or higher.
result: F

query: Test whether the compound Cc1ccc(-c2cc(C(F)(F)F)nn2-c2ccc(S(N)(=O)=O)cc2)cc1 [Celecoxib] (top concentration 10000 nM) records selective drug sensitivity score of -1 or higher.
result: T

query: Test whether the compound C[C@@H]1CCN(C(=O)CC#N)C[C@@H]1N(C)c1ncnc2[nH]ccc12 [Tofacitinib] (top concentration 5000 nM) records selective drug sensitivity score of -1 or higher.
result: F

query: Test whether the compound CC[C@@H]1CN(C(=O)NCC(F)(F)F)C[C@@H]1c1cnc2cnc3[nH]ccc3n12 [Upadacitinib] (top concentration 10000 nM) records selective drug sensitivity score of -1 or higher.
result: F

query: Test whether the compound COc1cc2c(NC3CCN(C(C)C)CC3)nc(C3CCCCC3)nc2cc1OCCCN1CCCC1 [UNC0638] (top concentration 10000 nM) records selective drug sensitivity score of -1 or higher.
result: F

query: Test whether the compound COc1cccc2c1C(=O)c1c(O)c3c(c(O)c1C2=O)C[C@@](O)(/C(CO)=N/NC(=O)CCCCCN1C(=O)C=CC1=O)C[C@@H]3O[C@H]1C[C@H](N)[C@H](O)[C@H](C)O1 [Aldoxorubicin] (top concentration 1000 nM) records selective drug sensitivity score of -1 or higher.
result: T

query: Test whether the compound Cc1c(-c2c(-c3ccc(F)o3)sc3ncnc(O[C@H](Cc4ccccc4OCc4ccnn4CC(F)(F)F)C(=O)O)c23)ccc(OCCN2CCN(C)CC2)c1Cl (top concentration 1000 nM) records selective drug sensitivity score of -1 or higher.
result: F

query: Test whether the compound CCNC(=O)C[C@@H]1N=C(c2ccc(Cl)cc2)c2cc(OC)ccc2-n2c(C)nnc21 [Molibresib] (top concentration 10000 nM) records selective drug sensitivity score of -1 or higher.
result: T

* * *

Test system: ALL-PO
Test: selective drug sensitivity score (sDSS, relative to normal bone marrow) (sDSS (score)); higher = more potent and effective on the cell line relative to normal bone marrow cells
Conditions: 72 h
Metric: selective drug sensitivity score
Keep the answer to the number alone.

query: Which selective drug sensitivity score is listed for NC1(c2ccc(-c3nc4ccn5c(=O)[nH]nc5c4cc3-c3ccccc3)cc2)CCC1 [MK-2206] (top concentration 1000 nM) ?
result: 5.46

query: Which selective drug sensitivity score is listed for Cc1sc2c(c1C)C(c1ccc(Cl)cc1)=N[C@@H](CC(=O)NCCCCNC(=O)COc1cccc3c1C(=O)N(C1CCC(=O)NC1=O)C3=O)c1nnc(C)n1-2 (stereo partly drawn) [dBET1] (top concentration 10000 nM) ?
result: -5.58

query: Which selective drug sensitivity score is listed for C[C@@H]1COCCN1c1cc(C2([S@](C)(=N)=O)CC2)nc(-c2cc[nH]c3nccc2-3)n1 [AZD6738] (top concentration 25000 nM) ?
result: 4.58

* * *

For each of the compounds below, state its selective drug sensitivity score.
Test system: KASUMI-9
Assay: selective drug sensitivity score (sDSS, relative to normal bone marrow) (sDSS (score)); higher = more potent and effective on the cell line relative to normal bone marrow cells
Conditions: 72 h
Keep the answer to the number alone.

query: Record CN1CCN(C2CCN(C(=O)Nc3cc(Oc4ccc(NC(=O)C5(C(=O)Nc6ccc(F)cc6)CC5)c(F)c4)ccn3)CC2)CC1 [Golvatinib] (top concentration 2500 nM) : what is its selective drug sensitivity score with KASUMI-9?
result: 0.66

query: Record Cc1ccc(-c2cc(C(F)(F)F)nn2-c2ccc(S(N)(=O)=O)cc2)cc1 [Celecoxib] (top concentration 10000 nM) : what is its selective drug sensitivity score with KASUMI-9?
result: -0.06

query: Record Cn1cnc2c(F)c(Nc3ccc(Br)cc3Cl)c(C(=O)NOCCO)cc21 [Selumetinib] (top concentration 10000 nM) : what is its selective drug sensitivity score with KASUMI-9?
result: 2.2

query: Record Cn1cc(-c2ccc(F)c(C(F)(F)F)c2)nc1C1CCN(c2ncnc3[nH]ncc23)CC1 (top concentration 10000 nM) : what is its selective drug sensitivity score with KASUMI-9?
result: 0.66

query: Record COc1cc2ncnc(Nc3ccc(F)c(Cl)c3)c2cc1OCCCN1CCOCC1 [Gefitinib] (top concentration 10000 nM) : what is its selective drug sensitivity score with KASUMI-9?
result: 0.16

query: Record CC(=O)c1c(C)c2cnc(Nc3ccc(N4CCNCC4)cn3)nc2n(C2CCCC2)c1=O [Palbociclib] (top concentration 10000 nM) : what is its selective drug sensitivity score with KASUMI-9?
result: 8.78

query: Record Cc1nc2cccc(N)c2c(=O)n1C1CCC(=O)NC1=O (centres undefined) [Avadomide (CC122)] (top concentration 10000 nM) : what is its selective drug sensitivity score with KASUMI-9?
result: 10.7

query: Record CC(C)(C)Cn1c(N)nc2ccc(-c3[nH]c(C(C)(C)C)nc3-c3ccc(F)cc3)nc21 [Ralimetinib] (top concentration 10000 nM) : what is its selective drug sensitivity score with KASUMI-9?
result: 8.76

query: Record O=C1NC(=O)[C@@H](c2cn3c4c(cccc24)CCC3)[C@@H]1c1c[nH]c2ccccc12 [Tivantinib] (top concentration 1000 nM) : what is its selective drug sensitivity score with KASUMI-9?
result: 5.38

* * *

Test system: COG-LL-317
Assay: selective drug sensitivity score (sDSS, relative to normal bone marrow) (sDSS (score)); higher = more potent and effective on the cell line relative to normal bone marrow cells
Details: 72 h
Metric: selective drug sensitivity score
Keep the answer to the number alone.

query: Which selective drug sensitivity score is listed for CC(C)(C)Cn1c(N)nc2ccc(-c3[nH]c(C(C)(C)C)nc3-c3ccc(F)cc3)nc21 [Ralimetinib] (top concentration 10000 nM) ?
result: 0.96

query: Which selective drug sensitivity score is listed for O=c1[nH]c(=O)n([C@H]2C[C@H](O)[C@@H](CO)O2)cc1C(F)(F)F [Trifluridine] (top concentration 10000 nM) ?
result: 15.6

query: Which selective drug sensitivity score is listed for CCC1(c2ccc(N)cc2)CCC(=O)NC1=O (stereo not given) [Aminoglutethimide] (top concentration 10000 nM) ?
result: 0

query: Which selective drug sensitivity score is listed for CCN(CCO)CCCOc1ccc2c(Nc3cc(CC(=O)Nc4cccc(F)c4)[nH]n3)ncnc2c1 [AZD1152-HQPA] (top concentration 1000 nM) ?
result: 19.8

query: Which selective drug sensitivity score is listed for CCCCNc1ncc(C(=O)NCc2ccc(-n3ccnc3)cc2)c(NC2CCC(O)CC2)n1 (stereo not given) [UNC2881] (top concentration 2500 nM) ?
result: 0.6
